Below, each of the compounds is paired with its reported melting point value.

Give the measured melting point of Cc1cc(-c2cc(=O)n3cc(N4CCN[C@@H](C)C4)ccc3n2)cc2cnn(C)c12 . 248 to 250 °C

Next up: Cc1cn2cc(-c3cc(=O)n4cc(N5C[C@@H](C)N[C@@H](C)C5)ccc4n3)cc2c(C)n1 254 to 256 °C

Next up: COc1ccc(-c2ccc3nc(N4CCC(N(C)C)CC4)cc(=O)n3c2)cc1F 157 to 160 °C

Next up: Cc1cn2cc(-c3cc(=O)n4cc(C5=CCN(C(C)C)CC5)ncc4n3)cc2c(C)n1 220 to 222 °C

Next up: COc1ccc(-c2cc(=O)n3cc(C4=CCN(C)CC4)ccc3n2)cc1OC 165 to 168 °C

---
Give the measured melting point of CCc1nc(C)cn2cc(-c3cc(=O)n4cc(N5CCN6CCC[C@H]6C5)ccc4n3)cc12 . 220 to 222 °C

Next up: C[C@H]1CN(c2ccc3nc(-c4ccc(N(C)C)cc4)cc(=O)n3c2)CCN1 199 to 202 °C

----------
Test system: SMN2 minigene mRNA (SMN2-A minigene) in HEK293H cells
method: SMN2 minigene mRNA splicing RT-qPCR assay in cultured cells
Format: cell-based, human
experimental-setup: Homo sapiens, HEK293-H; concentration increasing full length SMN2 mRNA 1.5-fold relative to vehicle-treated cells; HEK293H cells with SMN2-A minigene, 24 hours, 7-point concentration data; read-out: EC1.5x for production of full length SMN2 mRNA
Below, each of the molecules is paired with its reported EC (1.5-fold increase) value.

Give the measured EC (1.5-fold increase) of CCN1CCN(c2cc(C)c3nc(-c4cc5c(C)nc(C)cn5n4)cc(=O)n3c2)C[C@H]1C . < 0.1 µM

Next up: CN1CC=C(c2cn3c(=O)cc(-c4ccc5c(cnn5C)c4)nc3cn2)CC1 < 0.1 µM

Next up: COc1ccc(-c2cc(=O)n3cc(N4CCNCC4)ccc3n2)cc1C#N 0.1 to 0.3 µM

Next up: Cc1cn2cc(-c3cc(=O)n4cc(C5CCN(C)CC5)ccc4n3)cc(F)c2n1 < 0.1 µM

Next up: Cc1cn2nc(-c3cc(=O)n4cc(N5CCC6C(CCN6C)C5)ccc4n3)cc2c(C)n1 (centres unmarked) < 0.1 µM

----------
Test system: SMN2 minigene mRNA (SMN2-A minigene) in HEK293H cells
method: SMN2 minigene mRNA splicing RT-qPCR assay in cultured cells
Assay type: cell-based, human
experimental-setup: Homo sapiens, HEK293-H; concentration increasing full length SMN2 mRNA 1.5-fold relative to vehicle-treated cells; HEK293H cells with SMN2-A minigene, 24 hours, 7-point concentration data; read-out: EC1.5x for production of full length SMN2 mRNA
recorded-endpoint: EC (1.5-fold increase)

Give the measured EC (1.5-fold increase) of Cc1nc2ccc(-c3cc(=O)n4cc(N5CCCNCC5)ccc4n3)cc2o1 . < 0.1 µM

Next up: COCCNC1CCN(c2cc(C)c3nc(-c4ccc(OC)c(OC)c4)cc(=O)n3c2)CC1 0.1 to 0.3 µM

Next up: Cc1cn2cc(-c3cc(=O)n4cc(N5CCN(CCOCCO)[C@@H](C)C5)ccc4n3)cc(Cl)c2n1 < 0.1 µM

Next up: CCN1CCN(c2ccc3nc(-c4cc5c(C)nc(C)cn5n4)cc(=O)n3c2)CC1 < 0.1 µM

Next up: Cc1cn2cc(-c3ccc4nc(C5CCNCC5)cc(=O)n4c3)cc(F)c2n1 < 0.1 µM

Next up: CCc1cc(-c2cc(=O)n3cc(N4CCN(CCO)[C@H](C)C4)ccc3n2)cn2cc(C)nc12 < 0.1 µM

Next up: COc1cccc(-c2cc(=O)n3cc(N4CCN(C)CC4)ccc3n2)c1 3 to 30 µM

Next up: COc1cccc(-c2cc(=O)n3cc(N4C[C@@H](C)N[C@@H](C)C4)ccc3n2)c1 1 to 3 µM
